Overview of recorded total protein half-life in vivo for various sequences
protocol_details: total protein half-life in vivo (active degradation + dilution); higher = more stable protein
assay_setup: wild type E. coli NCM3722; growth: C-lim chemostat; doubling time 12 h
Express your answer in h, writing the number without its unit.

Completed entries (count: 8):
MFKKGLLALALVFSLPVFAAEHWIDVRVPEQYQQEHVQGAINIPLKEVKERIATAVPDKNDTVKVYCNAGRQSGQAKEILSEMGYTHVENAGGLKDIAMPKVKG	3.42
MSELNDLLTTRELQRWRLILGEAAETTLCGLDDNARQIDHALEWLYGRDPERLQRGERSGGLGGSNLTTPEWINSIHTLFPQQVIERLESDAVLRYGIEDVVTNLDVLERMQPSESLLRAVLHTKHLMNPEVLAAARRIVCQVVEEIMARLAKEVRQAFSGVRDRRRRSFIPLARNFDFKSTLRANLQHWHPQHGKLYIESPRFNSRIKRQSEQWQLVLLVDQSGSMVDSVIHSAVMAACLWQLPGIRTHLVAFDTSVVDLTADVADPVELLMKVQLGGGTNIASAVEYGRQLIEQPAKSVIILVSDFYEGGSSSLLTHQVKKCVQSGIKVLGLAALDSTATPCYDRDTAQALVNVGAQIAAMTPGELASWLAENLQS	12.9
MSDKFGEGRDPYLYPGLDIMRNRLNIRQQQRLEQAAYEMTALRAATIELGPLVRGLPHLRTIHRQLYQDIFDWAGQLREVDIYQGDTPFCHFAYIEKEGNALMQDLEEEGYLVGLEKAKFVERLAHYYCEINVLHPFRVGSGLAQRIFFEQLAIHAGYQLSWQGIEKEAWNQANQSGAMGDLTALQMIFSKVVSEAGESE	10.2
MVKSQPILRYILRGIPAIAVAVLLSACSANNTAKNMHPETRAVGSETSSLQASQDEFENLVRNVDVKSRIMDQYADWKGVRYRLGGSTKKGIDCSGFVQRTFREQFGLELPRSTYEQQEMGKSVSRSNLRTGDLVLFRAGSTGRHVGIYIGNNQFVHASTSSGVIISSMNEPYWKKRYNEARRVLSRS [P0AFV4]	7.8
MHYQPKQDLLNDRIILVTGASDGIGREAAMTYARYGATVILLGRNEEKLRQVASHINEETGRQPQWFILDLLTCTSENCQQLAQRIAVNYPRLDGVLHNAGLLGDVCPMSEQNPQVWQDVMQVNVNATFMLTQALLPLLLKSDAGSLVFTSSSVGRQGRANWGAYAASKFATEGMMQVLADEYQQRLRVNCINPGGTRTAMRASAFPTEDPQKLKTPADIMPLYLWLMGDDSRRKTGMTFDAQPGRKPGISQ	9.39
MDFSLTEEQELLLASIRELITTNFPEEYFRTCDQNGTYPREFMRALADNGISMLGVPEEFGGIPADYVTQMLALMEVSKCGAPAFLITNGQCIHSMRRFGSAEQLRKTAESTLETGDPAYALALTEPGAGSDNNSATTTYTRKNGKVYINGQKTFITGAKEYPYMLVLARDPQPKDPKKAFTLWWVDSSKPGIKINPLHKIGWHMLSTCEVYLDNVEVEESDMVGEEGMGFLNVMYNFEMERLINAARSTGFAECAFEDAARYANQRIAFGKPIGHNQMIQEKLALMAIKIDNMRNMVLKVAWQADQHQSLRTSAALAKLYCARTAMEVIDDAIQIMGGLGYTDEARVSRFWRDVRCERIGGGTDEIMIYVAGRQILKDYQNK [P0A9U8]	2.25
MKGRWVKYLLMGTVVAMLAACSSKPTDRGQQYKDGKFTQPFSLVNQPDAVGAPINAGDFAEQINHIRNSSPRLYGNQSNVYNAVQEWLRAGGDTRNMRQFGIDAWQMEGADNYGNVQFTGYYTPVIQARHTRQGEFQYPIYRMPPKRGRLPSRAEIYAGALSDKYILAYSNSLMDNFIMDVQGSGYIDFGDGSPLNFFSYAGKNGHAYRSIGKVLIDRGEVKKEDMSMQAIRHWGETHSEAEVRELLEQNPSFVFFKPQSFAPVKGASAVPLVGRASVASDRSIIPPGTTLLAEVPLLDNNGKFNGQYELRLMVALDVGGAIKGQHFDIYQGIGPEAGHRAGWYNHYGRVWVLKTAPGAGNVFSG [P0A935]	4.23
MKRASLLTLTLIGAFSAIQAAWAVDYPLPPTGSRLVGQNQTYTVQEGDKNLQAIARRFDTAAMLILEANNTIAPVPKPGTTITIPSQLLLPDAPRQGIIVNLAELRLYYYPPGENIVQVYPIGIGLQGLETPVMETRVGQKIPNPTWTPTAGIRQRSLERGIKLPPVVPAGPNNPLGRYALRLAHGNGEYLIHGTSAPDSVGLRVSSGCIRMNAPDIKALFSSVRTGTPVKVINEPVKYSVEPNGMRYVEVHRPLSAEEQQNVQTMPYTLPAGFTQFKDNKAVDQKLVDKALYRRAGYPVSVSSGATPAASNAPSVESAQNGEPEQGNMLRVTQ	12.4

Please turn your attention to the following entry.
I'd like to know its total protein half-life in vivo. The sequence in question is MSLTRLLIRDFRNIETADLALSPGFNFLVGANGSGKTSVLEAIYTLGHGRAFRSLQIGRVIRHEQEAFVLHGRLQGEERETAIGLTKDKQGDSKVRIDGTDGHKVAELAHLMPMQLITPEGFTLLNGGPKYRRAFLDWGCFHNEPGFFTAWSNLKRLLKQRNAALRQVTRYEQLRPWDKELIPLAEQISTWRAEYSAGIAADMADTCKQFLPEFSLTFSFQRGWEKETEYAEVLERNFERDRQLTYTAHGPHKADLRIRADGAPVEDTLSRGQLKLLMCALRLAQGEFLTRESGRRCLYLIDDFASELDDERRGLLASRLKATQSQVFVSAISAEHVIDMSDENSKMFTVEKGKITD [P0A7H0] 9.88

---

Overview of recorded total protein half-life in vivo for various sequences
protocol_details: total protein half-life in vivo (active degradation + dilution); higher = more stable protein
assay_setup: wild type E. coli NCM3722; growth: C-lim chemostat; doubling time 3 h

Completed entries (count: 5):
MDKIHAMQLFIKVAELESFSRAADFFALPKGSVSRQIQALEHQLGTQLLQRTTRRVKLTPEGMTYYQRAKDVLSNLSELDGLFQQDATSISGKLRIDIPPGIAKSLLLPRLSEFLYLHPGIELELSSHDRPVDILHDGFDCVIRTGALPEDGVIARPLGKLTMVNCASPHYLTRFGYPQSPDDLTSHAIVRYTPHLGVHPLGFEVASVNGVQWFKSGGMLTVNSSENYLTAGLAGLGIIQIPRIAVREALRAGRLIEVLPGYRAEPLSLSLVYPQRRELSRRVNLFMQWLAGVMKEYLD	2.32 h
MRYIVALTGGIGSGKSTVANAFADLGINVIDADIIARQVVEPGAPALHAIADHFGANMIAADGTLQRRALRERIFANPEEKNWLNALLHPLIQQETQHQIQQATSPYVLWVVPLLVENSLYKKANRVLVVDVSPETQLKRTMQRDDVTREHVEQILAAQATREARLAVADDVIDNNGAPDAIASDVARLHAHYLQLASQFVSQEKP [P0A6I9]	3.06 h
MKTLGEFIVEKQHEFSHATGELTALLSAIKLGAKIIHRDINKAGLVDILGASGAENVQGEVQQKLDLFANEKLKAALKARDIVAGIASEEEDEIVVFEGCEHAKYVVLMDPLDGSSNIDVNVSVGTIFSIYRRVTPVGTPVTEEDFLQPGNKQVAAGYVVYGSSTMLVYTTGCGVHAFTYDPSLGVFCLCQERMRFPEKGKTYSINEGNYIKFPNGVKKYIKFCQEEDKSTNRPYTSRYIGSLVADFHRNLLKGGIYLYPSTASHPDGKLRLLYECNPMAFLAEQAGGKASDGKERILDIIPETLHQRRSFFVGNDHMVEDVERFIREFPDA [P0A993]	2.93 h
MWIGIISLFPEMFRAITDYGVTGRAVKNGLLSIQSWSPRDFTHDRHRTVDDRPYGGGPGMLMMVQPLRDAIHAAKAAAGEGAKVIYLSPQGRKLDQAGVSELATNQKLILVCGRYEGIDERVIQTEIDEEWSIGDYVLSGGELPAMTLIDSVSRFIPGVLGHEASATEDSFAEGLLDCPHYTRPEVLEGMEVPPVLLSGNHAEIRRWRLKQSLGRTWLRRPELLENLALTEEQARLLAEFKTEHAQQQHKHDGMA [P0A873]	3.04 h
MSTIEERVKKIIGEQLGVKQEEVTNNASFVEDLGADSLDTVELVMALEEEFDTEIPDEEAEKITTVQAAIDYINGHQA [P0A6A8]	3.14 h

I'd like to know its total protein half-life in vivo. The sequence in question is `MKTGMFTCGHQRLPIEHAFRDASELGYDGIEIWGGRPHAFAPDLKAGGIKQIKALAQTYQMPIIGYTPETNGYPYNMMLGDEHMRRESLDMIKLAMDMAKEMNAGYTLISAAHAGYLTPPNVIWGRLAENLSELCEYAENIGMDLILEPLTPYESNVVCNANDVLHALALVPSPRLFSMVDICAPYVQAEPVMSYFDKLGDKLRHLHIVDSDGASDTHYIPGEGKMPLRELMRDIIERGYEGYCTVELVTMYMNEPRLYARQALERFRALLPEDER` > 4 h
